tested on: Human immunodeficiency virus 1; format: functional, organism-based; conditions: Human immunodeficiency virus 1, MT4, 120 h
property_name: EC50

Solved cases below.
- Cc1ccnc2c1NC(=O)c1cccnc1N2C1CC1: > 9.51 µM
- Cc1cc(/C=C/C#N)cc(C)c1Oc1ccnc(Nc2ccc3c(cnn3C)c2)n1: > 50.5 µM
- Cc1cc(/C=C/C#N)cc(C)c1Oc1ccnc(Nc2ccc3nncn3c2)n1: 0.58 µM
- Cc1cc(/C=C/C#N)cc(C)c1Oc1ccnc(Nc2ccc3c(c2)C(=O)NCC3)n1: > 3.19 µM

Answer with the recorded EC50 for the compound listed here: Cc1cc(/C=C/C#N)cc(C)c1Oc1ccnc(Nc2ccc3c(c2)NC(=O)C3)n1
14.4 µM

Origin of the recorded values: ChEMBL document CHEMBL6087416
